Where these numbers come from: patent US20260125360A1

# Test system: Ipomoea hederacea (IPOHE)
# TEST NAME: Pre-emergence herbicide glasshouse test
# Assay type: in vivo
# APPLIED CONDITIONS: 250 g/ha, evaluated after 13 days
# Experimental: Seeds of a variety of test species are sown in standard soil in pots Amaranthus palmeri (AMAPA), Amaranthus retoflexus (AMARE), Echinochloa crus-galli (ECHCG), Ipomoea hederacea (IPOHE)). […] After 13 days for pre and post-emergence, the test is evaluated for the percentage damage caused to the plant. […]
REPORTED PROPERTY: percentage damage caused to the plant, IPOHE (five-point scale)

Answered examples (2):
> print(dat)
                               entry.smiles      obs.value
1  FC(F)(F)c1ccc(-c2nc(C(F)(F)F)cn2Cc2nsc(Cl)n2)cc1    1 (1=0-20%)
2  FC(F)(F)c1cn(Cc2noc(C3CC3)n2)c(-c2ccc(Cl)nc2)n1  5 (5=81-100%)

**Query** Fill in percentage damage caused to the plant, IPOHE (five-point scale) for record Cc1nc(Cn2cc(C(F)(F)F)nc2-c2ccc(C(F)(F)F)cc2)co1
**Result** 1 (1=0-20%)

**Query** Fill in percentage damage caused to the plant, IPOHE (five-point scale) for record Cn1cnc(Cn2cc(C(F)(F)F)nc2-c2cnc(Cl)c(F)c2)n1
**Result** 5 (5=81-100%)

**Query** Provide only the value of recorded percentage damage caused to the plant, IPOHE (five-point scale) for Cc1nc(Cn2cc(C(F)(F)F)nc2-c2ccc(S(C)(=O)=O)cc2)no1
**Result** 5 (5=81-100%)

* * *

# System: Ipomoea hederacea (IPOHE)
# TEST NAME: Pre-emergence herbicide glasshouse test
# Format: in vivo
# APPLIED CONDITIONS: 250 g/ha, evaluated after 13 days
Reported percentage damage caused to the plant, IPOHE (five-point scale) values for a set of compounds

> print(dat)
                               entry.smiles                     target      obs.value
1  Cc1nnc(Cn2cc(C(F)(F)F)nc2-c2ccc(F)c(F)c2)o1  Ipomoea hederacea (IPOHE)  5 (5=81-100%)

**Query** Identify the reported percentage damage caused to the plant, IPOHE (five-point scale) for the following entry. Cn1cnc(Cn2cc(C(F)(F)F)nc2-c2ccc(F)c(F)c2)n1
**Result** 5 (5=81-100%)

**Query** Give percentage damage caused to the plant, IPOHE (five-point scale) for CCCn1nnnc1Cn1cc(C(F)(F)F)nc1-c1ccc(Cl)nc1
**Result** 1 (1=0-20%)

**Query** Give the measured percentage damage caused to the plant, IPOHE (five-point scale) for CCc1cnc(Cn2cc(C(F)(F)F)nc2-c2ccc(Cl)nc2)o1
**Result** 5 (5=81-100%)

**Query** Consider the compound CCON=Cc1cn(Cc2cc(C)on2)c(-c2cnc(Cl)c(F)c2)n1 . State its measured percentage damage caused to the plant, IPOHE (five-point scale).
**Result** 1 (1=0-20%)

**Query** Look up and report measured percentage damage caused to the plant, IPOHE (five-point scale) for this entry: CC(C)c1noc(Cn2cc(C(F)(F)F)nc2-c2ccc(Cl)nc2)n1
**Result** 1 (1=0-20%)

**Query** Given CCn1cc(Cl)c(Cn2cc(C(F)(F)F)nc2-c2ccc(Cl)nc2)n1 , respond with its percentage damage caused to the plant, IPOHE (five-point scale).
**Result** 1 (1=0-20%)

**Query** Read the entry CC(C)(C)c1nc(Cn2cc(C(F)(F)F)nc2-c2ccc(C(F)(F)F)cc2)no1 and write its reported percentage damage caused to the plant, IPOHE (five-point scale).
**Result** 1 (1=0-20%)

**Query** Please indicate percentage damage caused to the plant, IPOHE (five-point scale) recorded for Cc1cc(Cn2cc(C(F)(F)F)nc2-c2ccc(Cl)nc2)n(C)n1
**Result** 4 (4=61-80%)

**Query** Return the recorded percentage damage caused to the plant, IPOHE (five-point scale) value; entry: CCc1noc(Cn2cc(C(F)(F)F)nc2-c2ccc(Cl)nc2)n1
**Result** 4 (4=61-80%)

**Query** Output measured percentage damage caused to the plant, IPOHE (five-point scale) for this item: Cc1nc(Cn2cc(C(F)(F)F)nc2-c2ccc(Cl)nc2)no1
**Result** 5 (5=81-100%)

**Query** Provide percentage damage caused to the plant, IPOHE (five-point scale) value for the following compound: CC(C)(C)c1csc(Cn2cc(C(F)(F)F)nc2-c2ccc(Cl)nc2)n1
**Result** 1 (1=0-20%)
